test: yeast display, Sf9 membrane polyspecificity reagent, FACS + sequencing; frameworks hold sequencing errors
measured.attribute: polyreactivity (PSR sort gate)

Previously resolved entries follow.
[
  {
    "residues": "QVQLVESGGGLVQAGGSLRLSCAASGIIFDLNAMGWYRQAPGKERELVAAISSGGGTYYADSVKGRFTISRDNAKNTVYLQMNSLKPEDTAVYYCNRVTRWTYNYWGQGTLVTVSS",
    "polyreactivity (PSR sort gate)": "high polyreactivity"
  },
  {
    "residues": "QVQLVESGGGLVQAGGSLRLSCAASGGTFRSYAMGWFRQAPGKERELVASISSGGTTNYADSVKGRFTISRDNAKNTVYLQLTSLKPEDTAVYYCAKSYPGRAPGYYSWGQGTQVTVSS",
    "polyreactivity (PSR sort gate)": "low polyreactivity"
  },
  {
    "residues": "QVQLVESGGGLVQAGGSLRLSCAASGRILRYNAMGWYRQAPGKERELVAAITRTGGITRYADSVKGRFTISRDNAKNTVSLQMNSLNPQDTAVYYCNTYPRYGYVLSWPQGYDYWGQGTQVTVSS",
    "polyreactivity (PSR sort gate)": "low polyreactivity"
  },
  {
    "residues": "QVQLVESGGGLVQAGGSLRLSCAASGSLFGRYTMGWYRQATGKDREFVAAIDRVGITNYADSVKGRFTISRDNAKNTVYLQMNSLKPEDTAVYYCAADYGAIRPRDFIEVPGHYDYWGQGTQVTVSS",
    "polyreactivity (PSR sort gate)": "low polyreactivity"
  },
  {
    "residues": "QVQLVESGGGLVQAGGSLRLSCAASGRTFRFYAMGWYRQAPGKERELVAAIRWSGGSTYYADSVKGRFTISRDNAKNTVYLQMNSLKPEDTAVYYCNADNRWPFGGWYGLDYWGQGTQVTVSS",
    "polyreactivity (PSR sort gate)": "high polyreactivity"
  }
]

Sure, the documented polyreactivity (PSR sort gate) for QVQLVESGGGLVQAGGSLRLSCAASGGTLKYYAMGWYRQAPGKEREVVATISSRGGSTYYADSVKGRFTISRDNAKNTVYLQMNSLKPEDTAVYYCARRYWVQSRYPEMDYWGQGTQVTVSS is high polyreactivity

Sure, the documented polyreactivity (PSR sort gate) for QVQLVESGGGLVQAGGSLRLSCAASGSILYVYAMGWYRQAPGKERELVATITGRVVSKNYADSVKGRLTLSRDNAKNSVYLQMNSLKPEDTAVYYCAARTRRRRGEYDYWGQGTQVTVSS is high polyreactivity

Sure, the documented polyreactivity (PSR sort gate) for QVQLVESGVGLVQAGGSLRLSCAASGFTFYPYAMGWYRQAPGKERELVASITNGGSTNYADSVKGRFTISRDNAKNTVYLQMNSLKPEDTAVYYCTAAYGFYASRYWYASYDYWGQGTQVTVSS is low polyreactivity

Sure, the documented polyreactivity (PSR sort gate) for QVQLVESGRGLVQAGGTLRLSCAASGSIFGYYAMGWYRQAPGKERELVASISGSGGTTYYADSVKGRFTISRDNAKNTVYLQMNSLNPEDTAVYYCAARRSIYGYPFVTSRRGYWGQGTQVTVSS is high polyreactivity

Sure, the documented polyreactivity (PSR sort gate) for QVQLVESGGGLVQAGGSHRLSCAASGSTFVSNAMGGYRQAPGKERELVAGITFSGGSTYYADSVKGRFTISRDNAKNAVYLQMNSVKPEDTAVYYCAKRTYPSFYYWGQGTKVTVSS is low polyreactivity

Sure, the documented polyreactivity (PSR sort gate) for QVQLVESGGGLVQAGGSLRLRCAASGRIFDWYALGWNRQAPGQERELVAAITSGGSTYYADSVKGRFTISRDNAKNTVYLQMNSLKTEDTAVYYCAADLYYWGDSDYWGQGTQVTVSS is low polyreactivity

* * *

assay: yeast display, Sf9 membrane polyspecificity reagent, FACS + sequencing; frameworks hold sequencing errors
measured.attribute: polyreactivity (PSR sort gate)

Previously resolved entries follow.
[
  {
    "residues": "QVQLVESGGGLVQAGGSLRLSCAASGSTFLFYAMGWYRQAPGKEREFVAAITWSGGSTYYADSVKGRFTISRDNAKNTVYLQMNSLKPEDTAVYYCNGYYVPTTGREFYFAFYYWGQGTQVTVSS",
    "measured.attribute": "polyreactivity (PSR sort gate)",
    "result": "low polyreactivity"
  },
  {
    "residues": "QFQLVESGGGLDQARGSLRLTCAASGSIFARNAMGWYRQAPGKERELVAAITYSGGNTYYADSVKGRFTISRDNAKNTVYLQMNSLKPEDTAVYYCNKDWYPTYAAYNYYYWGQGTQVTVSS",
    "measured.attribute": "polyreactivity (PSR sort gate)",
    "result": "high polyreactivity"
  },
  {
    "residues": "QVQLVESGGGLVQAGGSLRLSCAASGFTLLPYAMGWYRQAPGKERELVAAISRRGVSTYYADSVKGRFTISRDNAKNTVYLQMNSLKPEDTAVYYCATRYFTGYGLRPQFYYWGQGSQVTVSS",
    "measured.attribute": "polyreactivity (PSR sort gate)",
    "result": "high polyreactivity"
  },
  {
    "residues": "QVQLVESGGGLVQAGGSLRLSCAASGRTFSSYAKGWYRQAPGKERELVAAITSGGSTYYADSVKGRFTISRDNAKNTVYLQMNSLKPDDTAVYYCAAEQHGYYWHSWNRYIFYYWGQGTQVTVSS",
    "measured.attribute": "polyreactivity (PSR sort gate)",
    "result": "high polyreactivity"
  },
  {
    "residues": "QVQLVESGGGLVQAGGSLRLSCAASGSIFSDYAMGWYRQAPGKERELVAAISGTGGGTYYADSVKGRFTISRDNAKNTVYLQMNSLKPEDTAVYYCAADYVFAWWGDYYWGQGTQVTVSS",
    "measured.attribute": "polyreactivity (PSR sort gate)",
    "result": "high polyreactivity"
  }
]

Sure, the documented polyreactivity (PSR sort gate) for QFQLVESGGGLVQAGGSLRLSCAASGRTLHGYTMGWYRQAPGKVREFVATISSIGGSTYYADSVKGRFTISRDNAKNTVYLQMNSLKPEDTAVYYCNRGRARVIFSGMDYWGQGTQVTVSS is low polyreactivity

Sure, the documented polyreactivity (PSR sort gate) for QVQLVESGGGLVQAGGSLRLSCAASGRTFKYYAMGWYRQAPGKERELVASISASGGSTRYADSVKGRFTISRDNAKNTVYLQMNSLKPEDTAVYYCAADRGYKYYYWGLGTQVTVSS is high polyreactivity

* * *

test: yeast display, Sf9 membrane polyspecificity reagent, FACS + sequencing; frameworks hold sequencing errors
measured.attribute: polyreactivity (PSR sort gate)

[
  {
    "residues": "QVQLVESGGGLVQAGGSLRLSCAASGRIFRVYALGWSRQAPGKERELVAAITSGGSTYYADSVKGRFTISRDNAKNTVYLQMNSLKPEDSAVYYCAAKRFRYRPGDYWGQGTQVTVSS",
    "result": "high polyreactivity"
  },
  {
    "residues": "QVQLVESGGGLVQAGGSLRLSCAASGFTIWWYAMGWSRRAPGKERELVATITSGGRTNYAYSVKGRFTISRDNAKNTVYLQMTSLKPEDTAVYYCATRQLSKVKDMDYWGQGTQVTVSS",
    "result": "high polyreactivity"
  },
  {
    "residues": "QVQLVESGGGLVQAGASLSLSCAASGYIFARYAMGLYIQSPGKERELVAAIRGDGGSTYYADSVKGRFTISRDNAKNTVYLQMNSLKPVDTAVYYCSTEIPWVSYYWTYYFWGQCTQVTVSS",
    "result": "high polyreactivity"
  },
  {
    "residues": "QVQLVESGGGLFQAGGSLRLSCAASGSTFYIYAMGWYRQAPGKEREFFAAIDFSGSSTYADSEKGRFTISRDNAKNTVYVQMNSLKPEDTAVYYCAAYQIYQYDGPYDYWGQGTQVTVSS",
    "result": "low polyreactivity"
  }
]

Sure, the documented polyreactivity (PSR sort gate) for QVQLVESGGGLVQAGGSLRLSCAASGSIFYNNVMGWYRQAPGKERELVAVISGGGSTNYADSVKGRFTISRDNAKNTDYLQMNSLKPEDTAVYYCAARGRYSYGDRYEYWGQGTQVTVSS is low polyreactivity

* * *

test: yeast display, Sf9 membrane polyspecificity reagent, FACS + sequencing; frameworks hold sequencing errors
measured.attribute: polyreactivity (PSR sort gate)

Previously resolved entries follow.
[
  {
    "residues": "QVQLVESGGGLVQAGGSLRLSCSASGRTFATNAMGWYRQAPGKERELVAAISGSGGRTYYADSVKGRFTISRDIAKNTVYLQMNSLKPEDTAVYYCAAQKVPYRATNYYYWGQGTQVTVSS",
    "measured.attribute": "polyreactivity (PSR sort gate)",
    "result": "high polyreactivity"
  },
  {
    "residues": "QVQLVESVGGLVQAGGSLRLSCAASGRIFNYNAMGWYRQAPGKERELVAAITSSGDSTNYADSVKGRFTISRDNAKNTVYLQMNSLKPEDTAVYYCNASSPYDYDWGQGTQVTVSS",
    "measured.attribute": "polyreactivity (PSR sort gate)",
    "result": "low polyreactivity"
  },
  {
    "residues": "QVQLVESGGGLVQAGGSLRLSCAASGRIFTQYAMGWYRPPPGKERELVAAINASDGSTYADSVKGRFTISRDNAKNTVYLQMKSLKPEDTAVYYCNVTGGPYDFTRWSEFDHWGQGTQVTVSS",
    "measured.attribute": "polyreactivity (PSR sort gate)",
    "result": "low polyreactivity"
  },
  {
    "residues": "QVQLVESGGGLVQAGGRLRLSCAASGRIFKFYAMGWYRQAPGKERELVAAIRRGGTTNYADSVKGRFTISRDNAKNTFYLQMNSLKPEDTAVYFCAADGWYRVLTGLVSSWKYWGQGTQVTVSS",
    "measured.attribute": "polyreactivity (PSR sort gate)",
    "result": "high polyreactivity"
  }
]

Sure, the documented polyreactivity (PSR sort gate) for QVQLVESGGGLVQAGGRLRLSCAASGSTSQSNAMGWYRQAPGKERELVAAISWSGTSTYYADSVKGRFTISRDNAKNTVYLQMNSLKPEDTAVYYCAADYIFDYDYWGQGTQVTVSS is low polyreactivity
